Where these numbers come from: patent US20150004189A1

molecular target: HLA-DQ molecule DQB1*0502 (human); test: inhibition of radiolabeled peptide binding to purified HLA
The following binders are listed with their measured IC50 values.
propertyMeasured: IC50 (µM)

binder	propertyMeasured	reportedResult
EHRWREIYNMVKFRM [Der p 4 peptide 3324.0986 (position 381)]	IC50	8.94
YVGHDEFDAFVAYHI [Der p 4 peptide 3324.0975 (position 476)]	IC50	5.04
LEKISNEIKIVATPD [Bet v 1 peptide 3324.0353 (position 96)]	IC50	5.09
AFMLAWNYGVPRVMS [Der p 4 peptide 3324.0977 (position 321)]	IC50	0.992
SRGNRAFIAINLQKN [Der p 4 peptide 3324.0974 (position 416)]	IC50	0.546
IEFRFYKEITNVFRG [Der p 4 peptide 3324.0976 (position 251)]	IC50	5.52
EIYNMVKFRMIAGQE [Der p 4 peptide 3324.0978 (position 386)]	IC50	26.6
SCWAFSGVAATESAY [Der p 1 peptide 3324.0832 (position 131)]	IC50	4.4
